Test: pKa, potentiometric AstraZeneca in-house assay (or ACD / BioByte)
Settings: pKa (acid), measured, potentiometric
Please enter satisfied where pKa is greater than or equal to 4, and not satisfied where it is lower.

Could you verify whether the entry CCCN(CCC)S(=O)(=O)c1ccc(C(=O)O)cc1 shows pKa of no less than 4?
not satisfied

Could you verify whether the entry N=C(N)c1ccc(CNC(=O)[C@@H]2CCN2C(=O)[C@H](NCC(=O)O)C2CCCCC2)cc1 shows pKa of no less than 4?
not satisfied

Could you verify whether the entry CN1CCN(c2cc3c(cc2F)c(=O)c(C(=O)O)cn3-c2ccc(F)cc2)CC1 shows pKa of no less than 4?
satisfied

More entries:
Could you verify whether the entry C[C@@H]1CN(c2c(F)c(N)c3c(=O)c(C(=O)O)cn(C4CC4)c3c2F)C[C@H](C)N1 shows pKa of no less than 4?
satisfied

Could you verify whether the entry CCCNC(=O)NS(=O)(=O)c1ccc(Cl)cc1 [Chlorpropamide] shows pKa of no less than 4?
satisfied

Could you verify whether the entry Cc1cc(NC(=O)C2=C(O)c3ccccc3S(=O)(=O)N2C)no1 shows pKa of no less than 4?
not satisfied
